These entries and their values trace back to PubChem BioAssay.

- PROTOCOL_TEXT: reversal of MRP1-mediated doxorubicin resistance, pilot screen, H69AR cells, doxorubicin co-treatment (AID 601)
- TEST_CONDITIONS: H69AR cells, CellTiter-Glo, 72 h; compound alone cytotoxicity; at 10 µM
PARAMETER: viability (%)
# number only, unit % dropped from output

compound=C=CCSc1nnc(-c2ccccc2NC(C)=O)c(=O)[nH]1 parameter=viability unit_symbol=% result_number=93

Entry under test: O=C(COC(=O)C1CCN(S(=O)(=O)c2cccs2)CC1)c1cc2ccccc2o1 . Its viability was 96.2

---

Below: a set of entries, each annotated with reported viability.
- PROTOCOL_TEXT: growth inhibitors of H69AR lung tumor, primary screen, human, duplicate replicates (AID 580);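 further: 100% = mean luminescence of untreated wells and 0% = no signal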
- TEST_CONDITIONS: H69AR lung tumor cells viability, ATP luminescence, 72 h; at 10 µM; stronger effect = lower value
# number only, unit % dropped from output

Recorded results for 5 compounds are shown here.
compound=COc1ccc(-n2ncc3c(NCc4ccccn4)ncnc32)cc1 result_number=90.5
compound="CC(=O)c1ccc(NC2OC(C)C(O)C(O)C2O)cc1 (stereo not given)" result_number=91.3
compound=CCN1CCN(Cc2ccc(NC(=O)Nc3ccc(SC)cc3)cc2)CC1 result_number=98.4
compound=CCOC(=O)c1cccc(NC(=O)CSc2nnc(-c3ccoc3C)n2CCOC)c1 result_number=89.7
compound=CCC(=O)N1Cc2ccccc2-c2ccccc2C1=O result_number=90

Entry under test: Cc1cccc(C2CC(c3ccc(Br)cc3)Nc3nc(N)nn32)c1 (stereo not given) . Its viability was 87.6
